# ASSAY_DETAILS: Pharmacokinetic assay in SD rats (PO administration)
# Format: in vivo
# CONDITION_DESCRIPTION: male, Sprague-Dawley (SD), rat, 2 mg/kg, plasma, read-out: Mean residence time MRT
# Procedure: SD rats were used as test animals to study the pharmacokinetic behavior of the compounds of the present invention in the rat body (plasma) after oral administration at a dose of 5 mg/kg or 2 mg/kg and intravenous administration at a dose of 1 mg/kg. 3 SD rats/group, male, from Shanghai Jiesijie Experimental Animal Co., Ltd., animal production license number (SCXK (Shanghai) 2013-0006 N0.311620400001794). […] The main pharmacokinetic parameters were calculated using WinNonlin 6.1.
MEASURED_PROPERTY: MRT (h)
Just the number please, in h, no unit attached.

Inquiry: What does the data say about its MRT? Entry: [2H]C([2H])(Oc1cc2n(c(=O)c1Cl)-c1c(cnc(-c3ccnc(C(C)(C)NC(C)=O)n3)c1F)CCCC2)c1ncc(F)cc1F
Reply text: 2.5

----------
# TARGET_DESC: p38α/MK2 (Homo sapiens, UniProt P49137+Q16539)
# Construct: Thermo (MK2) 5477-KS-010; PV3316
# Sequence (Q16539 whole entry): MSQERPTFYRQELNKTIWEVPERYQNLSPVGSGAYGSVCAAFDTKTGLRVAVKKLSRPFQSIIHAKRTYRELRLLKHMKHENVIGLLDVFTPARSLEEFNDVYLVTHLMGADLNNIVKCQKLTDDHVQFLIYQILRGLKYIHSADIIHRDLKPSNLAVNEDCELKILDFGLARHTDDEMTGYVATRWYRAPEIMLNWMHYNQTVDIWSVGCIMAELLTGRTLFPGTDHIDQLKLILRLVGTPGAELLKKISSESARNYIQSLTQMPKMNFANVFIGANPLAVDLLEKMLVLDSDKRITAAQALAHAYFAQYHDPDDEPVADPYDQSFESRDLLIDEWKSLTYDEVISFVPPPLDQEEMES
# Sequence (P49137 whole entry): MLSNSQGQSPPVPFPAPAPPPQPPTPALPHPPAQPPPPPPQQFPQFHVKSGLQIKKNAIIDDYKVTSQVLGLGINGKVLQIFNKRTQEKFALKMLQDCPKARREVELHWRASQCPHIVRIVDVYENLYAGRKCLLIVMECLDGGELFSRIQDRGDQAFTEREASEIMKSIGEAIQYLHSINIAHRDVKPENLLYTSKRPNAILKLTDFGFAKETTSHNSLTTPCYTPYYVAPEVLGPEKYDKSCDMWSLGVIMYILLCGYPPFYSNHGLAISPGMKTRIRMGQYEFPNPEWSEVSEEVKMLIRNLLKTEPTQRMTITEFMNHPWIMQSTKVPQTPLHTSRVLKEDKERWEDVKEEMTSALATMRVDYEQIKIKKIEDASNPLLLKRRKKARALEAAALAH
# ASSAY_DETAILS: Inhibition of p38α/MK2 enzyme activity (TR-FRET, ULight-CREBtide)
# CONDITION_DESCRIPTION: 0.06 nM p38a, 1.2 nM MK2, 25 μM ATP; read-out: p38/MK2 IC50
MEASURED_PROPERTY: IC50 (nM)
Just the number please, in nM, no unit attached.

Past entries and their recorded results:
[2H]C([2H])(Oc1cc2n(c(=O)c1Cl)-c1cc(-c3ccnc(C(C)(C)O)n3)ncc1/C=C\CC2)c1ncc(F)cc1F [Example 16-1]; 0.49
[2H]C([2H])(Oc1cc2n(c(=O)c1Cl)-c1cc(-n3cccc(C(C)(C)O)c3=O)ncc1CCCC2)c1ncc(F)cc1F [Example 15-1]; 0.2

Shift focus to the following entry.
Inquiry: What does the data say about its IC50? Entry: [2H]C([2H])(Oc1cc2n(c(=O)c1Cl)-c1c(cnc(-c3ccnc(C(C)(C)NC(C)=O)n3)c1F)CCCC2)c1ncc(F)cc1F [Example 7-1]
Reply text: 0.34

----------
# ASSAY_DETAILS: Pharmacokinetic assay in SD rats (PO administration)
# Type: in vivo
# CONDITION_DESCRIPTION: male, Sprague-Dawley (SD), rat, 5 mg/kg, plasma, read-out: Half-life t1/2 (converted)
MEASURED_PROPERTY: half-life (h)
Just the number please, in h, no unit attached.

[2H]C([2H])(Oc1cc2n(c(=O)c1Cl)-c1c(cnc(-n3cc(F)c(C(C)(C)NC(C)=O)n3)c1F)CCCC2)c1ncc(F)cc1F [Example 6-1]; 2.7

Inquiry: What does the data say about its half-life? Entry: [2H]C([2H])(Oc1cc2n(c(=O)c1Cl)-c1c(cnc(-c3ccnc(C(C)(C)O)n3)c1F)CCCC2)c1ncc(F)cc1F [Example 9-1]
Reply text: 2.5

----------
# ASSAY_DETAILS: Pharmacokinetic assay in SD rats (PO administration)
# Assay type: in vivo
# CONDITION_DESCRIPTION: male, Sprague-Dawley (SD), rat, 5 mg/kg, plasma, read-out: Time to peak tmax
# Protocol: SD rats were used as test animals to study the pharmacokinetic behavior of the compounds of the present invention in the rat body (plasma) after oral administration at a dose of 5 mg/kg or 2 mg/kg and intravenous administration at a dose of 1 mg/kg. 3 SD rats/group, male, from Shanghai Jiesijie Experimental Animal Co., Ltd., animal production license number (SCXK (Shanghai) 2013-0006 N0.311620400001794). […] The main pharmacokinetic parameters were calculated using WinNonlin 6.1.
The following compounds are shown together with reported Tmax values.
For clarity, give the value followed by its unit.

[2H]C([2H])(Oc1cc2n(c(=O)c1Cl)-c1c(cnc(-c3ccnc(C(C)(C)O)n3)c1F)CCCC2)c1ncc(F)cc1F [Example 9-1]; 30 min

Shift focus to the following entry.
Inquiry: What does the data say about its Tmax? Entry: [2H]C([2H])(Oc1cc2n(c(=O)c1Cl)-c1c(cnc(-n3cc(F)c(C(C)(C)NC(C)=O)n3)c1F)CCCC2)c1ncc(F)cc1F [Example 6-1]
Reply text: 60 min

----------
# ASSAY_DETAILS: Pharmacokinetic assay in SD rats (PO administration)
# Type: in vivo
# CONDITION_DESCRIPTION: male, Sprague-Dawley (SD), rat, 2 mg/kg, plasma, read-out: Half-life t1/2 (converted)
MEASURED_PROPERTY: half-life
For clarity, give the value followed by its unit.

Inquiry: What does the data say about its half-life? Entry: [2H]C([2H])(Oc1cc2n(c(=O)c1Cl)-c1c(cnc(-c3ccnc(C(C)(C)NC(C)=O)n3)c1F)CCCC2)c1ncc(F)cc1F
Reply text: 1.4 h

----------
The following compounds are shown together with reported pIC50 values.
# Tested on: p-Hsp27 in U937 cells
# ASSAY_DETAILS: Inhibition of p-Hsp27 in LPS-stimulated U937 cells (ELISA)
# Type: cell-based
# CONDITION_DESCRIPTION: Homo sapiens, U-937; PMA-differentiated U937, 10 ng/ml LPS 0.5 hours; read-out: U937 cell activity test p-HSP27 IC50
Scale note: pIC50 = -log10(concentration in M).

[2H]C([2H])(Oc1cc(C)n(-c2cc(-n3cccc(C(C)(C)O)c3=O)ncc2C)c(=O)c1Cl)c1ncc(F)cc1F; 10.00
[2H]C([2H])(Oc1cc2n(c(=O)c1Cl)-c1c(cnc(-n3ccc(C(C)(C)O)n3)c1F)CCCC2)c1ncc(F)cc1F; 9.66

Shift focus to the following entry.
Inquiry: What does the data say about its pIC50? Entry: [2H]C([2H])(Oc1cc(C)n(-c2cc(-n3cccc(C(C)(C)O)c3=O)ncc2Cl)c(=O)c1Cl)c1ncc(F)cc1F
Reply text: 9.89
